- subject_of_test: T1, extracellular domain (ECD) of human IGSF11 (VSIG3), biotinylated (human, UniProt Q5DX21 23-241, biotinylated (site not stated))
- T1 construct: also called human IGSF11 protein
- T1 sequence: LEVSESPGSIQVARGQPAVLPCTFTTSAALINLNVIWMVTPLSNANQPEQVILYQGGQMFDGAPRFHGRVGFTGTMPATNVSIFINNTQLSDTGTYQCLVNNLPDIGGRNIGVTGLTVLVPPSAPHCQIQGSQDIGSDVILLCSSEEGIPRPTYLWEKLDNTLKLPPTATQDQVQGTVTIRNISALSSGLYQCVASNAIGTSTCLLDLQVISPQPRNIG
- assay_comment: ELISA, scFv; RFU grade (*** >1.0, ** 0.5-1.0, * 0.1-0.5)
Collected relative fluorescent units (RFU), ELISA values appear next to each entry.

binder	parameter	result
A-030 (scFv format) (scFv, V domains shown, scFv) VH: QVQLVQSGAEVKKPGASVKVSCKASGYTFTGYYMHWVRQAPGQGLEWMGWINPNSGNTGYAQKFQGRVTMTRNTSISTAYMELSSLRSEDTAVYYCARGGQQQLVLDDYWGQGTLVTVSS VL: DIQLTQSPSTLSASVGDRVTITCRASQSIGGWLAWYQHKPGKAPKLLIYAASSLQSGVPSRFSGSGSGTDFTLTISSLQPEDFATYYCRQSYSTPPTFGQGTKVEIK	relative fluorescent units (RFU), ELISA	0.1 to 0.5 rfu
A-022 (scFv format) (scFv, V domains shown, scFv) VH: EVQLLESGPGLVKPSQTLSLTCTVSGGSISSGGYYWSWIRQHPGKGLEWIGYIYYSGSTYYNPSLKSRVTISVDTSKNQFSLKLSSVTAADTAVYYCARASRSTDYYFDYWGQGTLVTVSS VL: QPGLTQPPSMSYGLGQTATLTCTGNRNNIGDQGAAWLQQHQGHPPKLLSYRNNNGPSGISERLSASRSGNTASLTISGLQPEDEADYYCSAWDSSLRAWVFGGGTKLTVL	relative fluorescent units (RFU), ELISA	0.5 to 1 rfu

The reported relative fluorescent units (RFU), ELISA of the binder A-009 (scFv format) (scFv, V domains shown, scFv) VH: QVQLVQSGAEVKKPGSSVKVSCKASGGTFSSYAISWVRQAPGQGLEWMGGIIPIFGTANYAQKFQGRVTITADESTSTAYMELSSLRSEDTAVYYCARGRGFGELYFDYWGQGTLVTVSS VL: ETTLTQSPATLSVSPGERATLSCRASQGVRSNIAWYQQKPGQAPRLLIYDSSTRATGIPARFSGSGSGTEFTLTISSLQSEDFAVYSCQQYKNWPRTFGQGTKVEIK was 0.5 to 1 rfu
